Attribute: fold change (FC)
# Test system: GES1
# experiment: Cytotoxicity against human GES-1 cells assessed as effect on cell viability at 50 uM after 48 hrs by MTT assay relative to control
# Format: cell-based
# measurement_setup: ges1, 48 h

Query block: What value of fold change (FC) has been recorded for this entry: O=c1[nH]c(=O)n(CCC[n+]2ccc(/C=C/c3c[nH]c4ccccc34)cc2)cc1F.[Br-]
Result block: 1.072

Query block: Now consider O=C(Cn1cc(F)c(=O)[nH]c1=O)NCC[n+]1ccc(/C=C/c2c[nH]c3ccccc23)cc1.[Br-] .
Result block: 1.069

Query block: What about this compound? O=c1[nH]c(=O)n(CCSSCC[n+]2ccc(/C=C/c3c[nH]c4ccccc34)cc2)cc1F.[Br-]
Result block: 0.895

Query block: Here is the next compound: O=C(Cn1cc(F)c(=O)[nH]c1=O)OCC[n+]1ccc(/C=C/c2c[nH]c3ccccc23)cc1.[Br-]
Result block: 0.561

Query block: Can you handle O=c1[nH]cc(F)c(=O)[nH]1 [FLUOROURACIL] next?
Result block: 0.53

###

Measured Drug uptake, listed per entry.
# experiment: Drug uptake in human SGC7901 cells at 5 uM after 24 hrs by flow cytometry relative to control
# Assay type: ADME, cell-based
# measurement_setup: sgc-7901, 24 h
Report as a plain number; the unit % is understood.

Solved cases (3 shown):
INSERT INTO results (compound_smiles, measurement_name, reported_result) VALUES
  ('O=C(Cn1cc(F)c(=O)[nH]c1=O)NCC[n+]1ccc(/C=C/c2c[nH]c3ccccc23)cc1.[Br-]', 'Drug uptake', 1.4),
  ('O=C(Cn1cc(F)c(=O)[nH]c1=O)OCC[n+]1ccc(/C=C/c2c[nH]c3ccccc23)cc1.[Br-]', 'Drug uptake', 96.6),
  ('O=c1[nH]c(=O)n(CCC[n+]2ccc(/C=C/c3c[nH]c4ccccc34)cc2)cc1F.[Br-]', 'Drug uptake', 80.5);

Consider the additional compound presented here.
Query block: Recorded Drug uptake of O=c1[nH]c(=O)n(CCSSCC[n+]2ccc(/C=C/c3c[nH]c4ccccc34)cc2)cc1F.[Br-] , please.
Result block: 98.8

###

# experiment: Drug uptake in human SGC7901 cells at 5 uM after 4 hrs by flow cytometry relative to control
# Assay type: ADME, cell-based
# measurement_setup: sgc-7901, 4 h
measurement_name: Drug uptake (%)
Numbers only; they are read as %.

Examples from the recorded data:
INSERT INTO measurements (compound_smiles, measurement_name, reported_result) VALUES
  ('O=c1[nH]c(=O)n(CCSSCC[n+]2ccc(/C=C/c3c[nH]c4ccccc34)cc2)cc1F.[Br-]', 'Drug uptake', 93.2),
  ('O=C(Cn1cc(F)c(=O)[nH]c1=O)NCC[n+]1ccc(/C=C/c2c[nH]c3ccccc23)cc1.[Br-]', 'Drug uptake', 0.8),
  ('O=c1[nH]c(=O)n(CCC[n+]2ccc(/C=C/c3c[nH]c4ccccc34)cc2)cc1F.[Br-]', 'Drug uptake', 78);

Query block: Recorded Drug uptake for O=C(Cn1cc(F)c(=O)[nH]c1=O)OCC[n+]1ccc(/C=C/c2c[nH]c3ccccc23)cc1.[Br-] , please?
Result block: 96.5

FYI, the data here is from ChEMBL document CHEMBL3997762.
